# IC50 per record follows
- assay system: T1, histidine-tagged human thymidylate synthase (ht-hTS) (human, UniProt P04818 1-313)
- T1 construct: also called human TS
- T1 sequence (P04818 other isoform, or with tags, fused parts or gaps limits assumed): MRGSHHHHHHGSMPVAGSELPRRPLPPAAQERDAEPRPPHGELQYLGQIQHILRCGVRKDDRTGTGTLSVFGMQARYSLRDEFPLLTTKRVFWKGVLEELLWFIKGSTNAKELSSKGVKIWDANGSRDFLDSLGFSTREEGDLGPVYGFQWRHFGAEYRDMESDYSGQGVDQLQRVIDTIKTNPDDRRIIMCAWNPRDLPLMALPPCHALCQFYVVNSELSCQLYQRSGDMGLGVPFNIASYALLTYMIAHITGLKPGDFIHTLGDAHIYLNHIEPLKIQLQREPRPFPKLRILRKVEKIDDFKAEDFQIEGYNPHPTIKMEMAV
- protocol description: hTS enzyme inhibition assay (peptide pre-incubated with hTS, then mTHF and dUMP, absorbance at 340 nm); fourth bar group
Where no end group is shown, it is not given here.
Reply with just the number (in µM).

Below, 2 binders whose answers are already recorded.
[[record]]
binder = "DFIHTLGD-NH2 [SEQ ID NO: 3]"
experimental_result = 435

[[record]]
binder = "Ac-DFIHTLGD [SEQ ID NO: 2]"
experimental_result = 159


Would you kindly look at the next entry?
IC50 for Ac-DFIHTLGD-NH2 [SEQ ID NO: 4] ?
435
